Sourced from patent US8791132B2

- assayed target: rat adrenergic α1B receptor (Rattus norvegicus, UniProt P15823)
- Construct: rat adrenergic α1B receptor obtained from Wistar Rat liver; from tissue; host or cells: Wistar rat liver
- assay procedure: Radioligand binding, adrenergic α1B ([3H]Prazosin)
- assay context: read-out: Percentage inhibition of ligand binding, Adrenergic α1B (0.03 μM), compound at 0.03 μM; [3H]Prazosin; repeat datapoints each shown
property label: inhibition at 0.03 µM (%)

Solved cases (2 shown):
[
  {
    "compound": "C/C(=C\\n1c2c(c3cc(C)ccc31)CN(C)CC2)c1ccc(C)nc1",
    "inhibition at 0.03 µM (%)": 24
  },
  {
    "compound": "Cc1ccc(C(O)Cn2c3c(c4cc(C)ccc42)CN(C)CC3)cc1 (racemic)",
    "inhibition at 0.03 µM (%)": 50
  }
]

I: Cc1cc(C)c2c(c1)c1c(n2CC(O)c2ccncc2)CCN2CCCC12 (single isomer, unassigned) [II-125b]
II: CN1CCc2c(c3ccccc3n2CCc2ccccc2)C1
Problem: // which entry has the larger inhibition at 0.03 µM value, I or II ? Pick one; state its label.
Solution: I

1: Cc1ccc(CCn2c3c(c4cc(C)ccc42)CN(C)CC3)cc1
2: CN1CCc2c(c3cc(Cl)ccc3n2CCc2ccccc2)C1
3: Cc1ccc(CCn2c3c(c4ccccc42)CN(C)CC3)cc1
4: CCN1CCc2c(c3cc(C)ccc3n2CCc2ccccc2)C1
Problem: Endpoint returns the given compounds ordered by ascending inhibition at 0.03 µM. Dear reader, please state the labels in the requested order.
Solution: 3, 4, 2, 1
(3: -4%, 4: 22%, 2: 49%, 1: 70%)

A: Cc1ccc2c(c1)c1c(n2CCc2ccc(C)nc2)CCN2CCCC12 (single isomer, unassigned) [197b]
B: Cc1ccc2c(c1)c1c(n2CCc2ccc(Cl)cc2)CCN(C)C1
Problem: Which has the smaller recorded inhibition at 0.03 µM, A or B ? # respond with the chosen item's label
Solution: B

1: Cc1ccc2c(c1)c1c(n2CC(C)(O)c2cnccn2)CCN2CCCC12 (single isomer, unassigned) [176a]
2: Cc1ccc2c(c1)c1c(n2CC(C)(O)c2cccnc2)CCN(C)CC1 (single isomer, unassigned) [II-135b]
Problem: Please compare: 1 and 2 . Report which one has the smaller inhibition at 0.03 µM value. Answer with the label corresponding to your selection.
Solution: 2

P: Cc1ccc2c(c1)c1c(n2C2=C(c3ccc4c(ccn4C)c3)CCC2)CCN(C)C1
Q: Cc1ccc2c(c1)c1c(n2CCc2ccc(CO)nc2)CCN(C)C1
Problem: Which item exceeds the other in inhibition at 0.03 µM, P or Q ? Write down the label of the entry you select.
Solution: Q

====

- assayed target: human recombinant adrenergic α2A receptor (Homo sapiens)
- Construct: expressed in transfected cells; host or cells: insect Sf9 cells
- Sequence (P08913 1-465): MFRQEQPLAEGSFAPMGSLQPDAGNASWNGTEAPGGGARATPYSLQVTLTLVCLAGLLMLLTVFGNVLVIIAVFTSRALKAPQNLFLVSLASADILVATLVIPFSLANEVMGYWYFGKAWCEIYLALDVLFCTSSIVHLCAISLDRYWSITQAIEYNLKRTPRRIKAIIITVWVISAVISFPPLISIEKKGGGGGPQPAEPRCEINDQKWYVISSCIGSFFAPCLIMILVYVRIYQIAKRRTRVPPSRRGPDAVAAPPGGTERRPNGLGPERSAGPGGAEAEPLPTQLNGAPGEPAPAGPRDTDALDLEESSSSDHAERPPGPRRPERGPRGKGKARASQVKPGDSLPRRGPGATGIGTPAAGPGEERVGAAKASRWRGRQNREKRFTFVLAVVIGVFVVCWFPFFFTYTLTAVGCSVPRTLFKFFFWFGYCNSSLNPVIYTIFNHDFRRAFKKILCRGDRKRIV
- assay procedure: Radioligand binding, adrenergic α2A ([3H]MK-912)
- assay context: compound at 0.1 μM; [3H]MK-912; repeat assays, each datapoint shown; read-out: Percentage inhibition of ligand binding, Adrenergic α2A
property label: inhibition at 0.1 µM (%)

I: Cc1ccc2c(c1)c1c(n2CC(O)c2ccc(F)cc2)CN(C)CC1 (single isomer, unassigned) [18a]
II: CCN1CCc2c(c3cc(C)ccc3n2CCc2ccncc2)C1
III: Cc1ccc2c(c1)c1c(n2CC(O)c2ccc(C(=O)O)cc2)CCN(C)C1 (stereo not drawn)
IV: CN1CCc2c(c3ccc(C(F)(F)F)cc3n2CC(O)c2ccncc2)C1 (stereo not drawn)
V: Cc1ccc2c(c1)c1c(n2CC(O)c2ccncc2)CN(C)CC1 (single isomer, unassigned) [8b]
Problem: Put the above molecules in order of rising inhibition at 0.1 µM, beginning with the smallest. Order the labels as requested and give them as your answer.
Solution: III, IV, V, II, I
(III: -7%, IV: -3%, V: 8%, II: 12%, I: 50%)

P: Cc1ccc2c(c1)c1c(n2CC(C)(O)c2cccnc2)CCN(C)C1 (stereo not drawn)
Q: Cc1ccc2c(c1)c1c(n2CC2(c3ccccc3)OCCO2)CCN(C)C1
Problem: Consider entries P and Q . Which has the numerically lower inhibition at 0.1 µM? Your choice should be expressed through its label.
Solution: P

1: Cc1ccc2c(c1)c1c(n2CCc2ccccn2)CCN(C)C1
2: COc1ccc(C(C)(O)Cn2c3c(c4cc(C)ccc42)CN(C)CC3)cn1 (stereo not drawn)
Problem: Which of the two gives a bigger number for inhibition at 0.1 µM: 1 or 2 ? Give the chosen item's label as your response.
Solution: 1

====

- assayed target: human recombinant adrenergic α1D receptor (Homo sapiens)
- Construct: expressed in transfected cells; host or cells: HEK-293
- Sequence (P25100 whole entry): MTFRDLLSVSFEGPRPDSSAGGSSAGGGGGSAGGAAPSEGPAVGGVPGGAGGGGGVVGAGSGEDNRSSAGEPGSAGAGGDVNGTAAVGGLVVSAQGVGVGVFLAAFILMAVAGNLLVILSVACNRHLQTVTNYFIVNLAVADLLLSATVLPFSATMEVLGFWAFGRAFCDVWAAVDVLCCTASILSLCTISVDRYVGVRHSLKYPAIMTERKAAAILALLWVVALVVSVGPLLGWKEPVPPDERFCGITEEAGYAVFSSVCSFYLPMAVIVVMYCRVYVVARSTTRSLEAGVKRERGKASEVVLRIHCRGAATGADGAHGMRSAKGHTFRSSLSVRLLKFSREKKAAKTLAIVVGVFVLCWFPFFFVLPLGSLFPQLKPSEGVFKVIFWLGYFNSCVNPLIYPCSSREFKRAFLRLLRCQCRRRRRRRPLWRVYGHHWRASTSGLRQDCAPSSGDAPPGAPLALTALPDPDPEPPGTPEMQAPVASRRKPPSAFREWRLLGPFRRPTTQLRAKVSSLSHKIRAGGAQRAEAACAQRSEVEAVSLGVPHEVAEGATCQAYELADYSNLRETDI
- assay procedure: Radioligand binding, adrenergic α1D ([3H]Prazosin)
- assay context: read-out: Percentage inhibition of ligand binding, Adrenergic α1D (0.1 μM), compound at 0.1 μM; [3H]Prazosin; repeat datapoints each shown
property label: inhibition at 0.1 µM (%)

A: C/C(=C\n1c2c(c3cc(C)ccc31)CN(C)CC2)c1cnn(C)c1
B: C/C(=C\n1c2c(c3cc(C)ccc31)CN(C)CC2)c1cccc(F)c1
C: Cc1ccc(CCn2c3c(c4ccccc42)CN(C)CC3)cc1
D: C/C(=C\n1c2c(c3cc(C)cnc31)CN(C)CC2)c1ccncc1
Problem: Please arrange the 4 compounds above from largest to smallest inhibition at 0.1 µM value. Output spec: a listing of the labels in the requested order.
Solution: B, C, A, D
(B: 52%, C: 32%, A: 21%, D: 12%)

====

- assayed target: rat adrenergic α1B receptor (Rattus norvegicus)
- Construct: rat adrenergic α1B receptor obtained from Wistar Rat liver; from tissue; host or cells: Wistar rat liver
- Sequence (P15823 1-515): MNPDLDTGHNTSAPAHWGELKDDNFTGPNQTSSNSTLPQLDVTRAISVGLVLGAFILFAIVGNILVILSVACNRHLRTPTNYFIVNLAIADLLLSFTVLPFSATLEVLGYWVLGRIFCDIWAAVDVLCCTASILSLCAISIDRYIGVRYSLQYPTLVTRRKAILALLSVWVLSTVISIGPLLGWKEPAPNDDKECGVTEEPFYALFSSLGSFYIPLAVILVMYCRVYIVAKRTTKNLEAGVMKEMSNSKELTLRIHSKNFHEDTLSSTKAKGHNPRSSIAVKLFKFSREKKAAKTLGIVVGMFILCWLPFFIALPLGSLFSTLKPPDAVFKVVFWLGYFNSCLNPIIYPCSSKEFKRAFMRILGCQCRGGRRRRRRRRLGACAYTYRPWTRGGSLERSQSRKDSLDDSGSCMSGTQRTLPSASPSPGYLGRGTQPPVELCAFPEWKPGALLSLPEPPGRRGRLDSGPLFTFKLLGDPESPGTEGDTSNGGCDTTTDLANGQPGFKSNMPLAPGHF
- assay procedure: Radioligand binding, adrenergic α1B ([3H]Prazosin)
- assay context: 0.1 μM compound; 0.1 µM
property label: Percentage inhibition of ligand binding, Adrenergic α1B (%)

[
  {
    "molecule": "Cc1ccc2c(c1)c1c(n2CC(C)c2ccc(C)nc2)CCN(C)C1 (single isomer, unassigned) [289a]",
    "value observed": 51
  },
  {
    "molecule": "Cc1ccc2c(c1)c1c(n2CC(c2ccc(F)cc2)N(C)C)CCN(C)C1 (single isomer, unassigned) [II-14a]",
    "value observed": 30
  },
  {
    "molecule": "Cc1ccc2c(c1)c1c(n2CC(C)(OC(=O)C(C)(C)C)c2cccnc2)CCN(C)C1 (single isomer, unassigned) [II-16b]",
    "value observed": 46
  },
  {
    "molecule": "Cc1ccc2c(c1)c1c(n2C(C)C(O)c2ccccc2)CCN(C)C1 (single isomer, unassigned) [II-95b]",
    "value observed": "−1"
  },
  {
    "molecule": "CC(=O)NC(Cn1c2c(c3cc(C)ccc31)CN(C)CC2)c1ccncc1 (single isomer, unassigned) [II-1b]",
    "value observed": "−7"
  }
]

P: Cc1ccc2c(c1)c1c(n2CC(C)c2ccc(C)nc2)CCN(C)C1 (single isomer, unassigned) [289b]
Q: Cc1ccc2c(c1)c1c(n2CC(c2ccc(F)cc2)N(C)C)CCN(C)C1 (single isomer, unassigned) [II-14b]
Problem: // select label with min value of measured Percentage inhibition of ligand binding, Adrenergic α1B from [ P , Q ] Please reply using the label of the selected record.
Solution: Q
